# System tested: NADPH oxidase 2 (Homo sapiens)
# Assay text: NOX2-dependent H2O2 signal modulators, primary screen, NOX inhibitor project, cell-based, HEK293-NOX2, PMA-stimulated, Amplex Red fluorescence (AID 1159); further: test concentration not given here
# Run conditions: 45 min, higher = more signal, called active from +8 up or from −8 down
Recorded z-score for the following compounds
Answer field: number only, no words.

[N-]=[N+]=NCc1ccccc1C[C@]1(C(=O)NCC(O)CO)N=C(c2ccc(OCCCO)cc2)O[C@H]1c1ccccc1N=[N+]=[N-] (stereo partly specified): -0.689
COc1ccc([Si](C)(C)[C@H]2[C@H](CCn3cc(CCO)nn3)O[C@@]3(C(=O)N(Cc4ccc(N5CCOC5=O)cc4)c4ccccc43)[C@@H]2C)cc1: -0.564
COCCOC(=O)N1C(=O)[C@@]2(c3cc(C#Cc4ccc(OC)cc4)ccc31)[C@H](C(=O)N1CCN(c3ncccn3)CC1)[C@H]1C(=O)O[C@H](c3ccccc3)[C@H](c3ccccc3)N1[C@@H]2c1ccc(O)cc1: 0.586
CC(C)C[C@@H]1NC(=O)[C@H]2C[C@@H](C(=O)NCCCCCCNC(=O)CS)[C@@H](c3cccc(OCCO)c3)N2C1=O: 1.14
COCCOC(=O)N1C(=O)[C@@]2(c3cc(C#CCC(C(=O)OC)C(=O)OC)ccc31)[C@H](C(=O)N1CCN(c3ncccn3)CC1)[C@H]1C(=O)O[C@H](c3ccccc3)[C@H](c3ccccc3)N1[C@@H]2c1ccc(OCCO)cc1: 1.41

Q. Can you share its z-score? I mean this compound: `COC(=O)[C@@]1(Cc2ccc(F)cc2)[C@H]2c3cc(C(=O)N4CCCC4)n(Cc4cccc5ccccc45)c3C[C@H]2CN1C(=O)c1ccccc1`
A. 0.836

Recorded values, source PubChem BioAssay.
